Taken from paper PMC6080388.

- targetOrSystem: AChE (EC 3.1.1.7, from Electrophorus electricus) (Electrophorus electricus, UniProt O42275)
- Construct: purchased Sigma Aldrich (Steinheim, Germany)
- Sequence (O42275 24-633): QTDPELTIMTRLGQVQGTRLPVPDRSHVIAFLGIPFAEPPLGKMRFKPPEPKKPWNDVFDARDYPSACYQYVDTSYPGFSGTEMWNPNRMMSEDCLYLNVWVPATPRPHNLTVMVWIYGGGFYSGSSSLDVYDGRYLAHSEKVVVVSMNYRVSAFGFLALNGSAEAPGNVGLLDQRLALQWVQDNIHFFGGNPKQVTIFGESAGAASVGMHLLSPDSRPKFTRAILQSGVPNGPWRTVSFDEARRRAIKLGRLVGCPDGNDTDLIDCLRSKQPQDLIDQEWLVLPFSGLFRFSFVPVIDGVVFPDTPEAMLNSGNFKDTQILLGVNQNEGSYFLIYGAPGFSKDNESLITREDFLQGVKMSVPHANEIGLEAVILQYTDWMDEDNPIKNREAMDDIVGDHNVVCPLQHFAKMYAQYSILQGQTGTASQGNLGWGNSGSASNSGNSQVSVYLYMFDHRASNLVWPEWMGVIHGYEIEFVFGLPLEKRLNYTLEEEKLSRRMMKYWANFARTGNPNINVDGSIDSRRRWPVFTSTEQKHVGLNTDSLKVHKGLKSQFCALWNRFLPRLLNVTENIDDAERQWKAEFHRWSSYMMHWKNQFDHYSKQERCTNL
- protocolText: biochemical
- Assay type: biochemical
- conditionSet: IC50(BuChE)/IC50(AChE)
Doc: threshold 1 (exclusive). Items with Selectivity for AChE beneath it return true; others return false.

Does this molecule meet the criterion Selectivity for AChE < 1? "Cl.O=C(NCCCCCCCNc1c2c(nc3ccccc13)CCC2)c1cnc(Cl)c(Cl)c1"
true

Lab note: confirm whether the reported Selectivity for AChE for this molecule is below 1, equality not counting. molecule: "Cl.O=C(NCCCNc1c2c(nc3ccccc13)CCC2)c1cnc(Cl)c(Cl)c1"
false

Please let me know if "Cl.O=C(NCCCCCNc1c2c(nc3ccccc13)CCC2)c1cnc(Cl)c(Cl)c1" shows Selectivity for AChE below 1.
false

Below 1 on Selectivity for AChE? Entry "Cl.O=C(NCCCCCCCCCNc1c2c(nc3ccccc13)CCC2)c1cnc(Cl)c(Cl)c1"
true

Check if Selectivity for AChE falls below 1 for "Cl.O=C(NCCCCNc1c2c(nc3ccccc13)CCC2)c1cnc(Cl)c(Cl)c1" .
false

====

- targetOrSystem: BuChE (EC 3.1.1.8, from equin serum) (Equus caballus)
- Construct: BuChE (EC 3.1.1.8, from equin serum)
- Sequence (P81908 whole entry): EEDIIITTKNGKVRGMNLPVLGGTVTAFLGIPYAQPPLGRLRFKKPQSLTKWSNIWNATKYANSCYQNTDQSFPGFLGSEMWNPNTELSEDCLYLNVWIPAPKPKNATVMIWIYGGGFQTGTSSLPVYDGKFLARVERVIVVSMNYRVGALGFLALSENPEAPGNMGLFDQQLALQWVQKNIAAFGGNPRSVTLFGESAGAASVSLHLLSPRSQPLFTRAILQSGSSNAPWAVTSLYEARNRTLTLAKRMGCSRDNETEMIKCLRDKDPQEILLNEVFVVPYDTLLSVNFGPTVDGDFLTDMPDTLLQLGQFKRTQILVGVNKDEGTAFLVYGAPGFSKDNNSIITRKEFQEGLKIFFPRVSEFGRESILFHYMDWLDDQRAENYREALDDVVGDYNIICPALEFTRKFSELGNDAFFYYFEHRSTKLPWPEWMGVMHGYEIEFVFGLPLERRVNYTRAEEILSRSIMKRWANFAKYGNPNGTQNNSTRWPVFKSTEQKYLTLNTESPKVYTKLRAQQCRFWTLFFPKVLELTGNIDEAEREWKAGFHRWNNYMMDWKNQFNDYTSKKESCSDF
- protocolText: biochemical
- conditionSet: means ± SEM of three independent experiments; equine serum BuChE
# t = IC50 below 200 nM (exclusive); f = IC50 at/above 200 nM

Below are worked cases with known answers.
>>> assignedcategory("Cl.O=C(NCCCCCCNc1c2c(nc3ccccc13)CCC2)c1cnc(Cl)c(Cl)c1")
"t"
>>> assignedcategory("Cl.O=C(NCCCCCNc1c2c(nc3ccccc13)CCC2)c1cnc(Cl)c(Cl)c1")
"f"
>>> assignedcategory("Cl.O=C(NCCCCCCCCNc1c2c(nc3ccccc13)CCC2)c1cnc(Cl)c(Cl)c1")
"t"
>>> assignedcategory("Cl.O=C(NCCCNc1c2c(nc3ccccc13)CCC2)c1cnc(Cl)c(Cl)c1")
"t"
>>> assignedcategory("Cl.O=C(NCCNc1c2c(nc3ccccc13)CCC2)c1cnc(Cl)c(Cl)c1")
"f"
>>> assignedcategory("Cl.O=C(NCCCCCCCNc1c2c(nc3ccccc13)CCC2)c1cnc(Cl)c(Cl)c1")
"t"
>>> assignedcategory("Cl.O=C(NCCCCNc1c2c(nc3ccccc13)CCC2)c1cnc(Cl)c(Cl)c1")
"f"

Criterion: IC50 strictly below 200 nM. Is it met by "Cl.O=C(NCCCCCCCCCNc1c2c(nc3ccccc13)CCC2)c1cnc(Cl)c(Cl)c1" ?
t

====

- targetOrSystem: AChE (EC 3.1.1.7, from Electrophorus electricus) (Electrophorus electricus, UniProt O42275)
- Construct: purchased Sigma Aldrich (Steinheim, Germany)
- protocolText: biochemical
- Assay type: biochemical
- conditionSet: means ± SEM of three independent experiments; electric eel AChE; read-out: AChE IC50 ± SEM
attributeMeasured: pIC50
Give bare numbers, as −log10 of the molar value.

>>> numericresult("Cl.O=C(NCCCCNc1c2c(nc3ccccc13)CCC2)c1cnc(Cl)c(Cl)c1 [3c]")
6.13
>>> numericresult("Cl.O=C(NCCNc1c2c(nc3ccccc13)CCC2)c1cnc(Cl)c(Cl)c1 [3a]")
7.19

Parameter requested: pIC50. Apply to each item below.
1. Cl.O=C(NCCCCCCCCCNc1c2c(nc3ccccc13)CCC2)c1cnc(Cl)c(Cl)c1 [3h]
2. Cl.O=C(NCCCCCNc1c2c(nc3ccccc13)CCC2)c1cnc(Cl)c(Cl)c1 [3d]

1. 6.81
2. 6.55
